# studySystem: recombinant human SAE enzyme (Homo sapiens)
# assayProcedure: SAE HTRF Enzyme Assay
# Format: biochemical
# reportedConditions: compound concentration 0.111 μM; read-out: Percent Inhibition
# Procedure: The SAE enzymatic reaction totals 50 μl and contains 50 mM HEPES Hemisodium (pH 7.5), 0.05% BSA, 5 mM MgCl2, 0.5 μM ATP, 250 μM GSH, 0.01 μM Ubc9-GST, 0.125 μM Sumo-Flag and 0.11 nM recombinant human SAE enzyme. […] After incubation for 2 hours at 24° C., quantification of FRET is performed on the Pherostar™ (BMG Labtech). Percentage inhibition values at a single concentration or enzyme inhibition (IC50) values are determined from those curves. […]
measuredQuantity: inhibition at 0.111 µM (%)
Give the value in % but do not write % after it.

Request: Bench note: what inhibition at 0.111 µM did NS(=O)(=O)OC[C@H]1C[C@@H](Nc2ncncc2C(=O)c2ccn(Cc3ccccc3Cl)n2)C[C@@H]1O show?
Response: 96

Request: Bench note: what inhibition at 0.111 µM did NS(=O)(=O)OC[C@H]1C[C@@H](Nc2ncncc2C(=O)c2ccn(Cc3cccc(F)c3)n2)C[C@@H]1O show?
Response: 98

Request: Bench note: what inhibition at 0.111 µM did NS(=O)(=O)OC[C@H]1C[C@@H](Nc2ncncc2C(=O)c2ccn(Cc3cc(Br)ccc3Cl)n2)[C@@H](F)[C@@H]1O show?
Response: 99

Request: Bench note: what inhibition at 0.111 µM did NS(=O)(=O)OC[C@H]1C[C@@H](Nc2ncncc2C(=O)c2ccn(Cc3ccc(C(F)(F)F)s3)c2)[C@@H](F)[C@@H]1O show?
Response: 98

Request: Bench note: what inhibition at 0.111 µM did NS(=O)(=O)OC[C@H]1C[C@@H](Nc2ncncc2C(=O)c2cc(C(F)(F)F)n(Cc3cccc(Cl)c3)n2)C[C@@H]1O show?
Response: 97

Request: Bench note: what inhibition at 0.111 µM did NS(=O)(=O)OC[C@H]1C[C@@H](Nc2ncncc2C(=O)c2ccn(Cc3ccc(F)c(F)c3)n2)[C@@H](O)[C@@H]1O show?
Response: 98

Request: Bench note: what inhibition at 0.111 µM did COC(C)c1cc(C(=O)c2cncnc2N[C@@H]2C[C@H](COS(N)(=O)=O)[C@@H](O)C2)nn1Cc1cccc(Br)c1 (mixture of isomers) show?
Response: 98

Request: Bench note: what inhibition at 0.111 µM did CC#CCn1ccc(C(=O)c2cncnc2N[C@@H]2C[C@H](COS(N)(=O)=O)[C@@H](O)C2)n1 show?
Response: 72

Request: Bench note: what inhibition at 0.111 µM did NS(=O)(=O)OC[C@H]1C[C@@H](Nc2ccncc2C(=O)c2ccn(Cc3cccc(C(F)(F)F)c3)n2)C[C@@H]1O show?
Response: 96

Request: Bench note: what inhibition at 0.111 µM did NS(=O)(=O)OC[C@H]1C[C@@H](Nc2ncncc2C(=O)c2ccn(Cc3cccc(I)c3)n2)C[C@@H]1O show?
Response: 98

Request: Bench note: what inhibition at 0.111 µM did NS(=O)(=O)OC[C@H]1C[C@@H](Nc2ncncc2C(=O)c2ccn(Cc3ccccc3OC(F)(F)F)n2)C[C@@H]1O show?
Response: 98

----------
# studySystem: recombinant human SAE enzyme (Homo sapiens, UniProt Q9UBT2)
# Sequence (Q9UBT2 1-640): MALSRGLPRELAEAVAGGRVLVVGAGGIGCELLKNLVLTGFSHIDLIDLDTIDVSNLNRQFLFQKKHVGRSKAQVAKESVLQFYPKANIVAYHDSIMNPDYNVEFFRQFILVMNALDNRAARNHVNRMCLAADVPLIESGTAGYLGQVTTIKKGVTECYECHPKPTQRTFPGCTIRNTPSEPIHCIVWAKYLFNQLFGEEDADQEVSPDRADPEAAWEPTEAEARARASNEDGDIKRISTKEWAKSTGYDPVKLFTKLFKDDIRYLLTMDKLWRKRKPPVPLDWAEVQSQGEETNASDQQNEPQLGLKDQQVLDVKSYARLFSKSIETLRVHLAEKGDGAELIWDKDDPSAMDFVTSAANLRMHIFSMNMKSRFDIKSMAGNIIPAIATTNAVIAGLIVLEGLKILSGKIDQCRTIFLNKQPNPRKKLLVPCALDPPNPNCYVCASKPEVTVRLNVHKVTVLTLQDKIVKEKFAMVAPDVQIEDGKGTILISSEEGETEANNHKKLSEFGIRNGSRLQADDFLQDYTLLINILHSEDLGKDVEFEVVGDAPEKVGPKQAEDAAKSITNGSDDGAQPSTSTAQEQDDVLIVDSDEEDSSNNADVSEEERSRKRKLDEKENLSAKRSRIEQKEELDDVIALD
# Sequence (Q9UBE0 1-346 partner): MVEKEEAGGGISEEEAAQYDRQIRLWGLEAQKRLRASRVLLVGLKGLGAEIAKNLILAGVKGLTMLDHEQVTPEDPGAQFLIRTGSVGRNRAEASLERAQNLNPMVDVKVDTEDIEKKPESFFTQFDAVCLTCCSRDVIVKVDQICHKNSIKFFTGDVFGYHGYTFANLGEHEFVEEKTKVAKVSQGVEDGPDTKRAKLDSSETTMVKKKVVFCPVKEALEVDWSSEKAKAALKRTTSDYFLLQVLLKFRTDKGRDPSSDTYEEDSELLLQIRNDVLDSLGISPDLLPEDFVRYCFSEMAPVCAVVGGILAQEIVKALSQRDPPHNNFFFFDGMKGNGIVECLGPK
# assayProcedure: SAE HTRF Enzyme Assay
# reportedConditions: class symbols A-C
pIC50: −log10 of the molar value.
Would you kindly list pIC50 for each of these compounds?

Request: Bench note: what pIC50 did Cc1cccc(Cn2ccc(C(=O)c3cncnc3N[C@@H]3C[C@H](COS(N)(=O)=O)[C@@H](O)C3)n2)c1 show?
Response: > 8.00

Request: Bench note: what pIC50 did NS(=O)(=O)OC[C@H]1C[C@@H](Nc2ncncc2C(=O)c2ccn(Cc3cc(F)cc(Cl)c3)n2)[C@H](O)[C@@H]1O show?
Response: > 8.00

Request: Bench note: what pIC50 did Cc1cc(C(=O)c2cncnc2N[C@@H]2C[C@H](COS(N)(=O)=O)[C@@H](O)[C@@H]2F)nn1Cc1ccc(C(F)(F)F)o1 show?
Response: > 8.00

Request: Bench note: what pIC50 did NS(=O)(=O)OC[C@H]1C[C@@H](Nc2ncncc2C(=O)c2ccn(Cc3cc(C(F)(F)F)cc(C(F)(F)F)c3)c2)C[C@@H]1O show?
Response: > 8.00

Request: Bench note: what pIC50 did NS(=O)(=O)OC[C@H]1C[C@@H](Nc2ncncc2C(=O)c2ccn(Cc3cc(Br)ccn3)n2)[C@H](O)[C@@H]1O show?
Response: > 8.00

----------
# studySystem: recombinant human SAE enzyme (Homo sapiens, UniProt Q9UBT2)
# assayProcedure: SAE HTRF Enzyme Assay
# Type: biochemical
# reportedConditions: compound concentration 0.111 μM; read-out: Percent Inhibition
Would you kindly list inhibition at 0.111 µM for each of these molecules?
Give the value in % but do not write % after it.

Request: Bench note: what inhibition at 0.111 µM did NS(=O)(=O)OC[C@H]1C[C@@H](Nc2ncncc2C(=O)c2cc(CO)n(Cc3ccccc3)n2)C[C@@H]1O show?
Response: 97

Request: Bench note: what inhibition at 0.111 µM did NS(=O)(=O)OC[C@H]1C[C@@H](Nc2ncncc2C(=O)c2ccn(Cc3cc(Cl)ccc3Cl)n2)[C@@H](F)[C@@H]1O show?
Response: 98

Request: Bench note: what inhibition at 0.111 µM did NS(=O)(=O)OC[C@H]1C[C@@H](Nc2ncncc2C(=O)c2ccn(Cc3ccccc3Cl)n2)[C@H](O)[C@@H]1O show?
Response: 99

Request: Bench note: what inhibition at 0.111 µM did NS(=O)(=O)OC[C@H]1C[C@@H](Nc2ncncc2C(=O)c2ccn(Cc3ccc(Cl)cc3)n2)C[C@@H]1O show?
Response: 98

Request: Bench note: what inhibition at 0.111 µM did NS(=O)(=O)OC[C@H]1C[C@@H](Nc2ncncc2C(=O)c2ccn(Cc3cc(C(F)(F)F)ccc3C(F)(F)F)n2)C[C@@H]1O show?
Response: 97

Request: Bench note: what inhibition at 0.111 µM did NS(=O)(=O)OC[C@H]1C[C@@H](Nc2ccncc2C(=O)c2ccn(Cc3cccc(Cl)c3)c2)[C@@H](F)[C@@H]1O show?
Response: 97

----------
# studySystem: recombinant human SAE enzyme (Homo sapiens, UniProt Q9UBT2)
# assayProcedure: SAE HTRF Enzyme Assay
# reportedConditions: class symbols A-C
Would you kindly list IC50 for each of these compounds?

Request: Bench note: what IC50 did NS(=O)(=O)OC[C@H]1C[C@@H](Nc2ccncc2C(=O)c2ccn(Cc3ccc(Cl)c(C(F)(F)F)c3)n2)C[C@@H]1O show?
Response: < 10 nM

Request: Bench note: what IC50 did NS(=O)(=O)OC[C@H]1C[C@@H](Nc2ncncc2C(=O)c2ccn(Cc3ccc4ccccc4c3)n2)C[C@@H]1O show?
Response: < 10 nM

Request: Bench note: what IC50 did NS(=O)(=O)OC[C@H]1C[C@@H](Nc2ncncc2C(=O)c2nn(Cc3cccc(Br)c3)cc2Cl)C[C@@H]1O show?
Response: < 10 nM

Request: Bench note: what IC50 did NS(=O)(=O)OC[C@H]1C[C@@H](Nc2ncncc2C(=O)c2ccn(Cc3cccc(Cl)n3)n2)C[C@@H]1O show?
Response: < 10 nM

Request: Bench note: what IC50 did CC(C)(O)c1cccc(Cn2ccc(C(=O)c3cncnc3N[C@@H]3C[C@H](COS(N)(=O)=O)[C@@H](O)C3)n2)n1 show?
Response: 10 to 100 nM

Request: Bench note: what IC50 did NS(=O)(=O)OC[C@H]1C[C@@H](Nc2ncncc2C(=O)c2ccn(Cc3ccc(F)c(Br)c3)n2)C[C@@H]1O show?
Response: < 10 nM

Request: Bench note: what IC50 did NS(=O)(=O)OC[C@H]1C[C@@H](Nc2ncncc2C(=O)c2ccn(Cc3ccc(C(F)(F)F)s3)c2)[C@@H](F)[C@@H]1O show?
Response: < 10 nM

Request: Bench note: what IC50 did NS(=O)(=O)OC[C@H]1C[C@@H](Nc2ncncc2C(=O)c2ccn(Cc3ccc(Cl)o3)c2)[C@@H](F)[C@@H]1O show?
Response: < 10 nM

Request: Bench note: what IC50 did NS(=O)(=O)OC[C@H]1C[C@@H](Nc2ncncc2C(=O)c2ccn(CC#Cc3ccco3)n2)C[C@@H]1O show?
Response: < 10 nM

Request: Bench note: what IC50 did NS(=O)(=O)OC[C@H]1C[C@@H](Nc2ncncc2C(=O)c2ccn(CC(=O)N3CCCC3)n2)[C@@H](F)[C@@H]1O show?
Response: 100 to 1000 nM

Request: Bench note: what IC50 did CC#CC(C)n1ccc(C(=O)c2cncnc2N[C@@H]2C[C@H](COS(N)(=O)=O)[C@@H](O)C2)n1 (single isomer, unassigned) [Compound I-362] show?
Response: 10 to 100 nM

Request: Bench note: what IC50 did NS(=O)(=O)OC[C@H]1C[C@@H](Nc2ncncc2C(=O)c2ccn(S(=O)(=O)c3cccc(Br)c3)c2)C[C@@H]1O show?
Response: < 10 nM

Request: Bench note: what IC50 did NS(=O)(=O)OC[C@H]1C[C@@H](Nc2ncncc2C(=O)c2ccn(Cc3ccccc3)n2)[C@@H](F)[C@@H]1O show?
Response: < 10 nM

Request: Bench note: what IC50 did NS(=O)(=O)OC[C@H]1C[C@@H](Nc2ncncc2C(=O)c2ccn(Cc3ccncc3)n2)[C@H](O)[C@@H]1O show?
Response: 10 to 100 nM
